Target: D(2) dopamine receptor (Rattus norvegicus, UniProt P61169)
Sequence (P61169 whole entry): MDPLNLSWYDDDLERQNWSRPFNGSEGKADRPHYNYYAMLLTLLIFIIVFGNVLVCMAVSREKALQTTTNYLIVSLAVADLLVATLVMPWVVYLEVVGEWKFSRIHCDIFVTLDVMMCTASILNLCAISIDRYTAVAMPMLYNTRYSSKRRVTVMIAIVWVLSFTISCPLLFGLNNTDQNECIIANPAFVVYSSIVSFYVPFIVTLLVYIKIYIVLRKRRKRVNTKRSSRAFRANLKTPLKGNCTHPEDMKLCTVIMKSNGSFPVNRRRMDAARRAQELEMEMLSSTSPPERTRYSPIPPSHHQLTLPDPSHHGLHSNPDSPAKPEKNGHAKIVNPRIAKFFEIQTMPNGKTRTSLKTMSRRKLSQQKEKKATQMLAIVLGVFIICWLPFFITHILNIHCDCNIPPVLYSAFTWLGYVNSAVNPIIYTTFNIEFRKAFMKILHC
Test: Displacement of [3H]spiperone from dopamine D2 receptor in rat striatum
measurement.type: Ki

molecule.smiles	measurement.type	measured
N[C@@H](CN1CCN(c2nc3cc(F)ccc3n3cccc23)CC1)C(=O)O	Ki	> 10 µM

Field: Ki. Fill in for each record below.
1. O=C(O)CN1CCN(c2ccc3ccccc3n2)CC1
2. N[C@H](CN1CCN(c2nc3cc(F)ccc3n3cccc23)CC1)C(=O)O
3. N/C(CN1CCN(c2nc3cc(F)ccc3n3cccc23)CC1)=N\O

stdout:
1. 0.919 µM
2. > 10 µM
3. > 10 µM

---

Molecular target: 5-hydroxytryptamine receptor 3A (Cavia porcellus, UniProt O70212)
Sequence (O70212 whole entry): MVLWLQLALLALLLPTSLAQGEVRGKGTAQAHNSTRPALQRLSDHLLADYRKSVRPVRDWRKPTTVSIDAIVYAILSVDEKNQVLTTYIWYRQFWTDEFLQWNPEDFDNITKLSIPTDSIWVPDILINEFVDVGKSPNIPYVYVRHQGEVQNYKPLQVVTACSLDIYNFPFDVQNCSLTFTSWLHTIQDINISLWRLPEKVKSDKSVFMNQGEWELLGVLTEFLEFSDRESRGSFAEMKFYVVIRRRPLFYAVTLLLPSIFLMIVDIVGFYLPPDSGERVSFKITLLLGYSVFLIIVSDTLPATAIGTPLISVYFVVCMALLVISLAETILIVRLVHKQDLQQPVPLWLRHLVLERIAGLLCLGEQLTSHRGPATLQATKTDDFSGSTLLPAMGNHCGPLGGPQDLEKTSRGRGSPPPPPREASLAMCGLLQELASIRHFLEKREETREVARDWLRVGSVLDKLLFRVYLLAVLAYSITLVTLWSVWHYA
Assay: Antagonist activity at 5HT3 receptor in spontaneously beating guinea pig right atrium assessed as inhibition of serotonin-induced maximum response by noncompetitive binding assay
measurement.type: pIC50
Numbers only, as −log10 of the molar value.

Below are worked cases with known answers.
molecule.smiles	pIC50
Fc1ccc2c(c1)nc(N1CCN(Cc3nnc[nH]3)CC1)c1cccn12	5.07
N/C(CN1CCN(c2nc3cc(F)ccc3n3cccc23)CC1)=N\O	5.24
O=C(O)CN1CCN(c2nc3cc(F)ccc3n3cccc23)CC1	5.72

API: the following record is the query input.
stdin: Specify measured pIC50 for `NC(=O)CN1CCN(c2nc3cc(F)ccc3n3cccc23)CC1` .
stdout: 4.95
